- target_or_test_system: HIV-1 93IN905 Env (pseudovirus) (HIV-1 isolate 93IN905)
- assay_details: cell-based or functional assay
quantity: IC50 (µg/mL), pseudovirus neutralization

Name the reported IC50 (µg/mL), pseudovirus neutralization value associated with the binder 1460_G14 (PGG14) (antibody, human IgG1, kappa, V domains shown) VH: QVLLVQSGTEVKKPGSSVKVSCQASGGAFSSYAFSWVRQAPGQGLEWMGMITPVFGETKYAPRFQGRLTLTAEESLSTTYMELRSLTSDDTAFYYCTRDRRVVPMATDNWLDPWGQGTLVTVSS VL: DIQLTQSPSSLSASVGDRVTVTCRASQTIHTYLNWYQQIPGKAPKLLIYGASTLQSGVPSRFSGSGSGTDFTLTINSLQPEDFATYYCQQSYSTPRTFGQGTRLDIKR > 50 µg/mL
